- assayedSystem: MarE (Streptomyces maremycinicus, UniProt Z9UO16L6N2, H57A, form not given)
- assayExplanation: isothermal titration calorimetry, one-site model
- conditionLabel: 0.1 mM sodium cyanide, 50 mM HEPES, 50 mM NaCl, 5% glycerol, pH 7.5, 22 °C
measuredEndpoint: Kd (µM)
// note: answer is a bare numeric in µM

What does the data say about its Kd? Entry: C[C@@H](c1c[nH]c2ccccc12)[C@H](N)C(=O)O [(2S,3S)-β-methyl-L-tryptophan] 92.6

###

- assayedSystem: MarE (Streptomyces maremycinicus, UniProt Z9UO16L6N2, R120K, form not given)
- assayExplanation: isothermal titration calorimetry, one-site model
- conditionLabel: 0.1 mM sodium cyanide, 50 mM HEPES, 50 mM NaCl, 5% glycerol, pH 7.5, 22 °C
measuredEndpoint: pKd
Lab note: report pKd as minus log10 of the concentration in molar units, number only.

For the compound `C[C@@H](c1c[nH]c2ccccc12)[C@H](N)C(=O)O` , what pKd is on record? 4.63

Ref: paper PMC11904535
